Tested on: HL-60
Assay: NCI tumour cell line growth inhibition, 48 h
Calls of active or inactive are those of the source. Rule as the data show it: active = GI50 up to about 1.1 µM and inactive = higher.
Examples of molecules with documented GI50 follow.

Please review the following examples before continuing.
> print(dat)
                                   molecule   experimental.value
1  N#Cc1c(N2CCOCC2)[nH]c(=O)c(C(c2c(Cl)cccc2Cl)c2c(O)c(C#N)c(N3CCOCC3)[nH]c2=O)c1O   12.9 µM (inactive)
2  CC(=O)OCC1OC(n2c(-c3ccc(C)cc3)cc(-c3ccccc3)c(C#N)c2=O)C(OC(C)=O)C(OC(C)=O)C1OC(C)=O (centres undefined)   48.9 µM (inactive)
3  CC1C(=O)O[C@H]2C1CC[C@@]1(C)[C@H](O)CC[C@@]13C[C@]2(O)OO3 (some centres undefined)  > 100 µM (inactive)

Just so you know, measured GI50 for O=C1C=C(c2ccccc2)OC1C1Sc2ccccc2NC1=O (centres undefined) came out at 3.15 µM (inactive)

====

Tested on: A498
Experiment: NCI tumour cell line growth inhibition, 48 h
The source made the active and inactive calls. Cut-off read from the data, not from the text of the source: active = GI50 up to about 1.1 µM and inactive = higher.
Examples of molecules with documented GI50 follow.

Please review the following examples before continuing.
> print(dat)
                                   molecule   experimental.value
1    COc1ccccc1NC(=S)N/N=C1\C(=O)Nc2ccccc21  > 100 µM (inactive)
2  CC(=O)C(=N\Nc1ccc(Cl)cc1)/C(C)=N/c1ccc(C)cc1   11.9 µM (inactive)
3  NC(=O)C1=C(O)C[C@@H]2CC3Cc4cccc(O)c4C(=O)C3=C(O)[C@]2(O)C1=O (stereo partly specified)   2.74 µM (inactive)
4  CC(=O)N1N=C(c2c(O)ccc3ccccc23)CC1c1ccc(Cl)cc1 (stereo unspecified)   26.1 µM (inactive)
5           Clc1ccc2sc(-n3ccc4ccccc43)nc2c1  > 100 µM (inactive)

Just so you know, measured GI50 for C#CC(O)/C=C/CCCCCCC#CC/C=C\CC#CCCCCCCCCC(O)C#C (stereo unspecified) came out at 12.6 µM (inactive)

====

Examples of molecules with documented GI50 follow.
Tested on: HOP-62
Test: NCI tumour cell line growth inhibition, 48 h
The source made the active and inactive calls. Cut-off read from the data, not from the text of the source: active = GI50 up to about 1.1 µM and inactive = higher.

Please review the following examples before continuing.
MOLECULE	GI50
CN(C)Cc1cc(C(=O)/C=C/c2ccccc2)cc(CN(C)C)c1O	32.4 µM (inactive)
CC(=O)OCC1OC(n2cccnc2=O)C(OC(C)=O)C1OC(C)=O (stereo not given)	> 100 µM (inactive)
O=C(CCN1CCCCC1)Nc1ccc2c(c1)C(=O)c1ccc(NC(=O)CCN3CCCCC3)cc1C2=O	2.12 µM (inactive)
COc1ccc(-c2coc3c4c(ccc3c2=O)OCO4)cc1OC	36.7 µM (inactive)
Cc1nc(-n2nc(-c3ccccc3)cc2-c2ccccc2)sc1C(=O)/C=C/c1cccc([N+](=O)[O-])c1	15.9 µM (inactive)
CC(=O)Nc1cc2ccc(=O)oc2cc1Cl	> 100 µM (inactive)
C/C(=N\NC(=S)N1CCCCCC1)c1cccc2cccnc12	1.15 µM (inactive)
CN(C(=O)c1cccs1)C(=S)N1CCN(c2ccccn2)CC1	> 100 µM (inactive)

Just so you know, measured GI50 for COc1ccc(CNc2cnc3ccc(N)cc3n2)cc1OC came out at > 10 µM (inactive)

Just so you know, measured GI50 for CCC(C)C1=C(O)[N+]2([O-])Oc3ccc(-c4c(O)c(O)c(-c5ccc(OC(C)=O)cc5)c(OC(C)=O)c4OC(C)=O)cc3OC2(C(C)CC)C(=O)N1O (stereo not given) came out at > 50 µM (inactive)

====

System: DU-145
Test: NCI tumour cell line growth inhibition, 48 h
Counter-ions that a name gives are not always drawn. Calls of active or inactive are those of the source. No stated cut-off is given here; in the data, active = GI50 up to about 1.1 µM and inactive = higher.
Examples of molecules with documented GI50 follow.

Please review the following examples before continuing.
MOLECULE	EXPERIMENTAL VALUE
CCCCC1NC=Nc2c1ccc1c2[nH]c2ccccc21 (stereo not given)	2.6 µM (inactive)
C=C(Cl)C(Cl)(CCl)CCC(Br)C(C)(C)Br (stereo not given)	> 10 µM (inactive)
O=C(O)CCCSc1ccccc1	> 100 µM (inactive)
CN(C)c1n/c(=N/Cc2ccccn2)ss1	> 10 µM (inactive)
O=c1c2c([N+](=O)[O-])cccc2nc2[nH]c3ccccc3n12	34 µM (inactive)
Cc1nc2ccc(S(=O)(=O)O)cc2c(=O)n1-c1ccc(C(=O)NN2C(=O)C(Cl)C2c2ccccc2O)cc1 (stereo not given)	> 100 µM (inactive)
Nc1ccc(-c2nc3ccccc3s2)cc1I	> 100 µM (inactive)
CC(Oc1ccc(Cl)cc1Cl)C(=O)NN1C(=O)CSC1c1ccccc1 (stereo not given)	91 µM (inactive)
Oc1ccc(C(O)C2CCCCN2)cc1O (stereo not given) [RIMITEROL HYDROBROMIDE]	> 100 µM (inactive)
CN(C(=O)CC(=O)CP(=O)(c1ccccc1)c1ccccc1)c1ccccc1	> 100 µM (inactive)

Entry CCOC(=O)Cn1c(=O)c2cc(-c3ccccc3)cc3c(Cl)nc4c(OC)c(OC)cc1c4c32 , DU-145 data, GI50 value: 21.4 µM (inactive)

Entry O=C(/C=C/c1ccc2ccccc2c1)NCc1ccc(C(=O)NCCc2ccccc2)cc1 , DU-145 data, GI50 value: > 100 µM (inactive)

Entry CCC(C)C1=C(O)[N+]2([O-])Oc3ccc(-c4c(O)c(O)c(-c5ccc(OC(C)=O)cc5)c(OC(C)=O)c4OC(C)=O)cc3OC2(C(C)CC)C(=O)N1O (stereo not given) , DU-145 data, GI50 value: > 50 µM (inactive)

====

Test system: HOP-62
Test: NCI tumour cell line growth inhibition, 48 h
Activity calls are given as the source filed them. Rule as the data show it: active = GI50 up to about 1.1 µM and inactive = higher.
MEASURED PROPERTY: GI50

Please review the following examples before continuing.
> print(dat)
                                   compound  measured.property   experimental.value
1       Cn1c2ccccc2n2c3ccccc3c(=S)c(C#N)c12               GI50   53.1 µM (inactive)
2  O=c1c(-c2ccccc2)c(SCCN2CCCC2)n(-c2ccccc2)c(=S)n1-c1ccccc1               GI50  > 100 µM (inactive)
3  CCc1c(CN)c(CC)c(CNC2=NCCN2)c(CC)c1CNC1=NCCN1               GI50  > 100 µM (inactive)

Just so you know, measured GI50 for O=c1oc(C(C(F)(F)F)C(F)(F)F)nc2ccccc12 came out at > 100 µM (inactive)

Just so you know, measured GI50 for COc1ccc(OC)c2c(C)ccnc12 came out at 9.75 µM (inactive)

Just so you know, measured GI50 for O=C1c2cccc3cc([N+](=O)[O-])cc(c23)C(=O)N1CCCN1CCN(CCCNc2ccc3ncn4c5ccccc5c(=O)c2c34)CC1 came out at < 0.005 µM (active)

Just so you know, measured GI50 for CC(C)=CC(=O)C[C@H]1C(=O)O[C@@H]2C[C@H]3C(C)=CC(=O)[C@@H](O)[C@]3(C)[C@H]3[C@@]4(O)OC[C@]32[C@@H]1[C@@H](C)[C@H]4O came out at 0.0227 µM (active)

Just so you know, measured GI50 for C/N=c1\sc2nc(C#N)c(C#N)nc2n1C came out at 23.4 µM (inactive)

Just so you know, measured GI50 for O=C(/C=C/c1ccco1)N1CCN(Cc2ccccc2)CC1 came out at > 100 µM (inactive)

====

Test system: SF-268
Test: NCI tumour cell line growth inhibition, 48 h
Active and inactive are the calls of the source. Rule as the data show it: active = GI50 up to about 1.1 µM and inactive = higher.
Log the outcome using a class from active, inactive

Known results for compounds:
COMPOUND	MEASURED ON	GROUP LABEL
O=C1Cc2nc(CO)c(CO)c(CO)c2CO1	SF-268	inactive
N#Cc1ccc(C(O)C(F)(F)c2nc3ccccc3o2)cc1 (stereo not given)	SF-268	inactive

Next item in the queue.
Asked: Identify the outcome logged in this assay for the compound shown: COC(=O)CCC(=O)Nc1cc(Cl)ccc1Cl
Given back: inactive

====

System: PC-3
Test: NCI tumour cell line growth inhibition, 48 h
Active and inactive are the calls of the source. Rule as the data show it: active = GI50 up to about 1.1 µM and inactive = higher. Where a SMILES comes first, the peptide text is derived from it. [ ]: non-standard residue; d: D form. The star is where a group is joined. NMeF = CN[C@@H](Cc1ccccc1)C(=O)O; NMeV = CN[C@H](C(=O)O)C(C)C; Boc = CC(C)(C)OC(=O)*; OBn = c1ccc(CO*)cc1
Examples of molecules with documented GI50 follow.

MOLECULE	MEASURED PROPERTY	EXPERIMENTAL VALUE
C=CCN1CCC(OC(=O)C(O)(/C=C\CC)C2CCCC2)CC1 (stereo not given)	GI50	> 100 µM (inactive)

Just so you know, measured GI50 for O=C(CCN1CCCCC1)Nc1ccc2c(c1)C(=O)c1ccc(NC(=O)CCN3CCCCC3)cc1C2=O came out at 2.26 µM (inactive)

Just so you know, measured GI50 for CC(C)[C@@H](C(=O)N1CCC[C@H]1C(=O)OCc1ccccc1)N(C)C(=O)[C@H](C(C)C)N(C)C(=O)[C@H](Cc1ccccc1)N(C)C(=O)[C@H](NC(=O)OC(C)(C)C)C(C)C (Boc-[dV][NMeF][NMeV][NMeV]P-OBn) came out at > 50 µM (inactive)

Just so you know, measured GI50 for CCSCCC(N)C(=O)O (stereo not given) came out at > 100 µM (inactive)
